Data origin, for the record: patent US10611778B2

Target: Menin/MLL (menin, FITC-MBM1 peptide) (Homo sapiens, UniProt O00255, T541A)
Construct: 6xHis (C)
Sequence (O00255 with tags, fused parts or gaps T541A): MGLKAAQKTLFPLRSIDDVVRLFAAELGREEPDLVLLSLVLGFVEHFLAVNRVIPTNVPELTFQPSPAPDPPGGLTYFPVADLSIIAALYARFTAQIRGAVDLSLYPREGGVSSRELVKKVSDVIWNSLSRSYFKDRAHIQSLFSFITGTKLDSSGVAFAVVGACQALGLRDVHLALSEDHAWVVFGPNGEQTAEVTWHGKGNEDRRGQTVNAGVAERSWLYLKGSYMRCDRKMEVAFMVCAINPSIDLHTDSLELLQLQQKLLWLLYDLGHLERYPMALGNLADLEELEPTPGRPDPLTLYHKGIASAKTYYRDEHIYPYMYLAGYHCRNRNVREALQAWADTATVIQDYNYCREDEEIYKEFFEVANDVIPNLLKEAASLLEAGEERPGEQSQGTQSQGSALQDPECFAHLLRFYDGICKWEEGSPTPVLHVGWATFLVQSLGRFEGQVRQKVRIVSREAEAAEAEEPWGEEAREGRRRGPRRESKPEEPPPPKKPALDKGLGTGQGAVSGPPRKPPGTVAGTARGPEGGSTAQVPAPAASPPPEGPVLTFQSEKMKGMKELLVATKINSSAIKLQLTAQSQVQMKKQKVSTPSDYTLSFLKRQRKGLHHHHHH
Assay: Menin/MLL fluorescence polarization (FP) assay
Assay type: binding
Details: averaged values over all measurements; read-out: Menin FP assay (IC50)
Reported IC50 values are given for each entry in this list.
Only the number, expressed in nM, is required.

The examples below pair each entry with its known result.
[
  {
    "MOLECULE": "FC(F)(F)Cc1cc2c(N3CCC4C(CCN4Cc4ccccc4)C3)ncnc2s1 (stereo not shown)",
    "UNITS": "nM",
    "IC50": 33
  },
  {
    "MOLECULE": "OCCn1cccc1CN1CCC2CN(c3ncnc4sc(CC(F)(F)F)cc34)CCC21 (stereo not shown)",
    "UNITS": "nM",
    "IC50": 220
  },
  {
    "MOLECULE": "FC(F)(F)Cc1cc2c(N3C[C@@H]4CN(Cc5ccccc5)[C@@H]4C3)ncnc2s1",
    "UNITS": "nM",
    "IC50": 1560
  },
  {
    "MOLECULE": "Cn1cc(CN2CCCC3C2CCN3c2ncnc3sc(CC(F)(F)F)cc23)cn1 (stereo not shown)",
    "UNITS": "nM",
    "IC50": 1770
  },
  {
    "MOLECULE": "FC(F)(F)Cc1cc2c(N3CCC4C(CCN4Cc4ncc[nH]4)C3)ncnc2s1 (stereo not shown)",
    "UNITS": "nM",
    "IC50": 2410
  },
  {
    "MOLECULE": "FC(F)(F)Cc1cc2c(N3CC[C@@H]4[C@@H](CCN4Cc4ccccc4)C3)ncnc2s1 (single isomer, unassigned)",
    "UNITS": "nM",
    "IC50": 89
  }
]

With those in mind, consider the next molecule.
Qu. What value of IC50 on Menin/MLL (menin, FITC-MBM1 peptide) (Homo sapiens, UniProt O00255, T541A) does FC(F)(F)Cc1cc2c(N3CC[C@H]4[C@H](CCN4Cc4ccccc4)C3)ncnc2s1 (single isomer, unassigned) have?
Ans. 230
